Values from paper PMC9300616

Target: Porcine α-amylase (Sus scrofa)
Sequence (P00690 16-511): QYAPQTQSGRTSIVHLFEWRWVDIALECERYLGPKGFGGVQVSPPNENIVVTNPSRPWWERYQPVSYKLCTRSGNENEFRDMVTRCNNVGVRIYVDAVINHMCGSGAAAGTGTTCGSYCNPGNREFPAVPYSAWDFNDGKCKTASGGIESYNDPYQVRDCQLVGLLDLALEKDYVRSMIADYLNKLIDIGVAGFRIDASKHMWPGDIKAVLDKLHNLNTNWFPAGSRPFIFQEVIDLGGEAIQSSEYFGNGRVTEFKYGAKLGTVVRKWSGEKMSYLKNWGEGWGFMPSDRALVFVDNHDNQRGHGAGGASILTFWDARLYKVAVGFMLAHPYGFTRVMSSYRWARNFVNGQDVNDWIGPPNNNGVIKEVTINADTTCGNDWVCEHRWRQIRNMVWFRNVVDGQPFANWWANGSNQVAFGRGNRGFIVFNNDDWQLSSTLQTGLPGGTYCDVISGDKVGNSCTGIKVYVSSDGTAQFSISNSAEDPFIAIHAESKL
measurement_type: IC50 (µM)
Expressed in µM, but write only the number.

Task: For the molecule shown here, `C[C@@H]1O[C@@H](OC[C@H]2O[C@@H](Oc3c(-c4ccc(O)c(O)c4)oc4cc(O)cc(O)c4c3=O)[C@H](O)[C@@H](O)[C@@H]2O)[C@H](O)[C@H](O)[C@H]1O` , give the reported IC50.
Result: 130
